Test description: Plasma concentration in Swiss mouse at 20 mg/kg, po after 1 hr
Type: ADME, organism-based
Parameters: dose 20 mg/kg, route oral
Exercise: state measured log10(concentration at 1 h) for each of the molecules provided.
Friendly reminder: values = log10 of concentration at 1 h, unit µM.

input: For OC(c1ccc(Cl)cc1)(c1cncnc1)c1ccccc1Cl (configuration not stated) , what is its reported log10(concentration at 1 h)?
output: 0.32

input: Which log10(concentration at 1 h) value is on record for NC(=O)c1cccc(C(O)(c2ccc(Cl)cc2)c2cccnc2)c1 (racemic) ?
output: 1.01

input: Sample NC(=O)c1cccc(C(O)(c2cccnc2)c2ccc(Cl)cc2F)c1 (racemic) — what was its log10(concentration at 1 h)?
output: 1.02

input: What does the record list as log10(concentration at 1 h) for N#Cc1ccc(C(O)(c2ccc(C(F)(F)F)cc2)c2cccnc2)c(F)c1 (racemic) ?
output: 0.15

input: Fill blank: measured log10(concentration at 1 h) of the molecule OC(c1ccc(C(F)(F)F)cc1)(c1cccnc1)c1ccc(Cl)cc1F (racemic) is ____.
output: 0.09

input: I would be grateful if you could share the reported log10(concentration at 1 h) for OC(c1ccc(Cl)cc1)(c1cccnc1)c1cncnc1 (racemic) .
output: -0.52

input: GET /values?readout=log10(concentration at 1 h)&item= CC[C@@H]([C@H](C)O)n1ncn(-c2ccc(N3CCN(c4ccc(OC[C@@H]5CO[C@@](Cn6cncn6)(c6ccc(F)cc6F)C5)cc4)CC3)cc2)c1=O
output: 0.80

* * *

Test description: Elimination half life in Sprague-Dawley rat at 5.2 mg/kg, iv
Type: ADME, organism-based
Design: dose 5.2 mg/kg, route intravenous
Settings: in vivo, read-out: beta t1/2 (converted)
Assay endpoint: half-life (h)
// return numeric value only (unit: h, not printed)

input: Which half-life value belongs to N#Cc1ccc(C(O)(c2ccc(C(F)(F)F)cc2)c2cccnc2)cc1 (racemic) ?
output: 5.1

* * *

Tested on: Trypanosoma cruzi
Test description: Antitrypanosomal activity against trypomastigotes of Trypanosoma cruzi Tulahuen expressing the beta- galactosidase gene infected rat L6 cells after 96 hrs
Type: functional, organism-based
Settings: L6, 96 h
Assay endpoint: pIC50
Note on pIC50: it is the negative log10 of concentration, concentration in mol/L.

input: Requested field: pIC50. Item: CC(C)Oc1ncc(C(O)(c2ccc(Cl)cc2)c2cccnc2)cn1 (racemic)
output: 7.22

input: If you can, please state the reported pIC50 value of OC(c1cccnc1)(c1cccs1)c1ccc(Cl)cc1F (racemic) .
output: 8.30

input: Return reported pIC50; argument: NC(c1ccc(Cl)cc1)(c1cccnc1)c1ccccc1Cl (racemic)
output: 7.05

input: Would you mind telling me what pIC50 value was observed for OC(c1ccc(Cl)cc1)(c1cccnc1)c1ccccc1C(F)(F)F (racemic) ?
output: 6.92

input: Need pIC50 of OC(c1ccc(Cl)cc1)(c1cccnc1)c1ccc(Cl)cc1F (racemic) , thanks.
output: 8.00

* * *

Test description: Plasma concentration in Swiss mouse at 20 mg/kg, po after 8 hrs
Type: ADME, organism-based
Parameters: dose 20 mg/kg, route oral
# concentration at 8 h >= 400 nM gives Y, anything below gives N

input: For this compound, is measured concentration at 8 h 400 nM or higher? NC(=O)c1cccc(C(O)(c2cccnc2)c2ccc(Cl)cc2F)c1 (racemic)
output: Y

input: In plain terms: is recorded concentration at 8 h at least 400 nM for OC(c1ccc(Cl)cc1)(c1cccnc1)c1cncnc1 (racemic) ?
output: N

input: Is concentration at 8 h at least 400 nM? Consider OC(c1ccc(Cl)cc1)(c1cncnc1)c1ccccc1Cl (configuration not stated)
output: N

input: Entry NC(=O)c1cccc(C(O)(c2ccc(Cl)cc2)c2cccnc2)c1 (racemic) : is its concentration at 8 h no less than 400 nM?
output: Y

input: Given CC[C@@H]([C@H](C)O)n1ncn(-c2ccc(N3CCN(c4ccc(OC[C@@H]5CO[C@@](Cn6cncn6)(c6ccc(F)cc6F)C5)cc4)CC3)cc2)c1=O , state whether its concentration at 8 h is at least 400 nM.
output: Y

input: Given OC(c1ccc(C(F)(F)F)cc1)(c1cccnc1)c1ccc(Cl)cc1F (racemic) , state whether its concentration at 8 h is at least 400 nM.
output: N

input: Reported concentration at 8 h reaches at least 400 nM for N#Cc1ccc(C(O)(c2ccc(C(F)(F)F)cc2)c2cccnc2)c(F)c1 (racemic) ?
output: N
